All values here come from ChEMBL document CHEMBL4393660.

# TARGET OR SYSTEM: Prostaglandin G/H synthase 1 (Homo sapiens)
# Sequence (P23219 whole entry): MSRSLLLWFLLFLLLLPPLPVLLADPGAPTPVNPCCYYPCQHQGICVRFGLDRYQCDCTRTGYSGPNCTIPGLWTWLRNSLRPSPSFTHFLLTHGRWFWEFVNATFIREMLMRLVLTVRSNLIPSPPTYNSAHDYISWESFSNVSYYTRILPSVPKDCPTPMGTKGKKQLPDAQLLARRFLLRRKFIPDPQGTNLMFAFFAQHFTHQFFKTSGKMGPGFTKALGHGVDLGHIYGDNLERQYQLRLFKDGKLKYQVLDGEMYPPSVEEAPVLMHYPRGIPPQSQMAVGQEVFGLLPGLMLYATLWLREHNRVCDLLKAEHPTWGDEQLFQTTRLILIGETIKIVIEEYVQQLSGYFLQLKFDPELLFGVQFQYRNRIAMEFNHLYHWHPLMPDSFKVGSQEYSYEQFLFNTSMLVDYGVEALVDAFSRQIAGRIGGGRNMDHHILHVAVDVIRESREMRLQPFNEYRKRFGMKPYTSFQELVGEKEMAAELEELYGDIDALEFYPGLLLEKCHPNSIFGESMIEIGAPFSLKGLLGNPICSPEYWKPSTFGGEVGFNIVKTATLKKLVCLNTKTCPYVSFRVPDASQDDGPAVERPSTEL
# METHOD NOTES: Inhibition of human recombinant COX1 assessed as reduction in PGF2alpha formation using arachidonic acid as substrate preincubated with enzyme for 10 mins followed by substrate addition for 30 secs and measured after 1 hr by microplate reader based enzyme immunoassay
Each entry below carries its reported pIC50.
The value called pIC50 is obtained by taking minus log10 of the concentration in mol/L.

Entry COc1ccc(/C=N/c2c(C#N)cnn2-c2ccc(S(N)(=O)=O)cc2)cc1 : reported pIC50 = ?
6.29

Entry CC(C(=O)Nc1c(C#N)cnn1-c1ccc(S(N)(=O)=O)cc1)N1CCOCC1 (configuration not stated) : reported pIC50 = ?
6.79

Entry N#Cc1cnn(-c2ccc(S(N)(=O)=O)cc2)c1/N=C/c1ccc(Br)cc1 : reported pIC50 = ?
6.94

Entry CC(Cl)C(=O)Nc1c(C#N)cnn1-c1ccc(S(N)(=O)=O)cc1 (configuration not stated) : reported pIC50 = ?
6.30

Entry COc1ccc(/C=N/c2c(C#N)cnn2-c2ccc(S(N)(=O)=O)cc2)cc1OC : reported pIC50 = ?
6.79

Entry N#Cc1cnn(-c2ccc(S(N)(=O)=O)cc2)c1/N=C/c1ccccc1 : reported pIC50 = ?
6.69

Entry CC(=O)Nc1c(C#N)cnn1-c1ccc(S(=O)(=O)NC(C)=O)cc1 : reported pIC50 = ?
6.06
